Biological target: T1, human IGF2^1-67 (mature insulin-like growth factor 2) (human, UniProt P01344 25-91, biotinylated (site not stated) where immobilised on the chip (Tables 1-4))
T1 construct: mature; also called mature IGF2; biotinylated IGF2
T1 sequence (P01344 25-91): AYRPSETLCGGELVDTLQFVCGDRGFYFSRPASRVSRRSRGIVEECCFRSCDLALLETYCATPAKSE
Experiment: SPR kinetic, biotin-IGF2 on chip, pH 6.5
assay_endpoint: koff

[[record]]
binder = "domain 11^AB5 Q1569R P1597H G1603K (receptor, See m5) MKSNEHDDCQVTNPSTGHLFDLSSLSGRAGFTAAYAKGWGVYMSICGENENCPPGVGACFGRTRISVGKANKRLRYVDQVLQLVYKDGSHCPSKSKLSYKSVISFVCRPEAGPTNRPMLISLDKQTCTLFFSWHTPLACEQATECSV"
endpoint_value = "0.0051 s⁻¹"

